- Measurement protocol: pKa (acid dissociation constant)
- Type: physicochemical
Recorded endpoint: pKa
Answers are plain numbers.

Consider the worked cases shown below.
- Oc1ccc(F)cc1F [2,4-Difluorophenol]: 8.4
- Oc1ccc(F)c(F)c1F [2,3,4-Trifluorophenol]: 6
- Oc1c(F)c(F)cc(F)c1F [2,3,5,6-Tetrafluorophenol]: 5.5
- Oc1ccc(F)cc1 [4-Fluorophenol]: 9.9

Okay, now this molecule:
Incoming: Give its pKa value. Item: Oc1c(Cl)c(Cl)c(Cl)c(Cl)c1Cl [Pentachlorophenol]
Outgoing: 4.7
